Values from patent US20230117034A1

Target: CDK12/CycK (Homo sapiens)
Sequence (Q9NYV4 with tags, fused parts or gaps): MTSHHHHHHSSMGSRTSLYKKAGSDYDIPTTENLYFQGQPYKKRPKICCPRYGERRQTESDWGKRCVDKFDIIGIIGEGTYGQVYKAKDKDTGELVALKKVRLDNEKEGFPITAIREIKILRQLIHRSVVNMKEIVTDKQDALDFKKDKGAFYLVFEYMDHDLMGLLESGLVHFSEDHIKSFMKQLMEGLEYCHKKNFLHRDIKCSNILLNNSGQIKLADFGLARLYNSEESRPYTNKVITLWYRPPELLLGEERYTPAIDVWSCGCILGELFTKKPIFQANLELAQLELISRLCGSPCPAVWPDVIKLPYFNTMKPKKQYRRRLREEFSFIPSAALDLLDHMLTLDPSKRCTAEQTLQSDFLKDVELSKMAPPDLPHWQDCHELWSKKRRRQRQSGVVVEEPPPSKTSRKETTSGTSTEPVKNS
Sequence (O75909 1-300 partner limits assumed): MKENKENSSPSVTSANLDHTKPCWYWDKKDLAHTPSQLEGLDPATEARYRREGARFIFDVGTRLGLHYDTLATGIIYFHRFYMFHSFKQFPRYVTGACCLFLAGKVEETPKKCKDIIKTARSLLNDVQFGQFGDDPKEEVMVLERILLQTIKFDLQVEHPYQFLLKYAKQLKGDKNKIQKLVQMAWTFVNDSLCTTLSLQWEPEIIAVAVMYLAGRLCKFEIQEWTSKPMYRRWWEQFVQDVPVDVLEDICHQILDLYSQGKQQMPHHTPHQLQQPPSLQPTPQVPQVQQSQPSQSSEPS
Assay: CDK12/CycK high ATP kinase assay (TR-FRET, 2 mM ATP)
Details: 2 mM ATP (high ATP); median; read-out: CDK12/CyclinK, 2 mM ATP (high ATP), IC50-[mol/l] (median)
Measured Parameter: IC50 (µM)
The reply should be a number in µM, with the unit left off.

As a guide, the following entries are already answered.
Compound | IC50 / µM
CN(CC(C)(C)O)c1nc(NCc2nc3cc(F)c(F)cc3[nH]2)n2ncc(C3CC3)c2n1 [Example 319] | 2.38
CN(CCO)c1nc(NCc2nc3ccccc3[nH]2)n2ncc(Br)c2n1 [Example 237] | 7.35
CC(C)c1cnn2c(NCc3nc4ccccc4[nH]3)nc(N3CCOC[C@@H]3C)nc12 [Example 6] | 1.78
Brc1cnn2c(NCc3nc4ccccc4[nH]3)nc(N3C[C@@H]4CCCN[C@@H]4C3)nc12 [Example 146] | 8.86
FC(F)(F)c1ccc2[nH]c(CNc3nc(N4CCOCC4)nc4c(C5CC5)cnn34)nc2c1 [Example 322] | 1.21

**Q:** Given CC(C)c1cnn2c(NCc3nc4ccccc4[nH]3)nc(N3CCOCC3)nc12 [Example 1] , state its recorded IC50.
**A:** 5.97

**Q:** Given Fc1cc(F)cc(-c2nnc(CNc3nc(N4CCOCC4)nc4c(Br)cnn34)[nH]2)c1 [Example 105] , state its recorded IC50.
**A:** 1.07

**Q:** Given O[C@H]1CCN(c2nc(NCc3nc4ccccc4[nH]3)n3ncc(Br)c3n2)C1 [Example 224] , state its recorded IC50.
**A:** 15.6

* * *

Molecular target: CDK9/CycT1 (Homo sapiens, UniProt P50750)
Construct: Recombinant full-length His-tagged human CDK9 and CycT1; purchased Life Technologies PV4131; host or cells: insect cells
Sequence (P50750 whole entry): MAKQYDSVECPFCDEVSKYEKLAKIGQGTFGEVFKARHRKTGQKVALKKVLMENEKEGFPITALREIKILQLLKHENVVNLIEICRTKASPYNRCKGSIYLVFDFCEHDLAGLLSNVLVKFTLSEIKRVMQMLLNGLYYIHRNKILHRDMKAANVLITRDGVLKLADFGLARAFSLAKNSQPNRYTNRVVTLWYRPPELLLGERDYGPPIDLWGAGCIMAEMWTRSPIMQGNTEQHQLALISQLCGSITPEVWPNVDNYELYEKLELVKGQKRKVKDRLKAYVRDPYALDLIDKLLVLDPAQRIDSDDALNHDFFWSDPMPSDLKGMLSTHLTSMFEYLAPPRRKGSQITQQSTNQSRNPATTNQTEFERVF
Sequence (O60563 whole entry partner): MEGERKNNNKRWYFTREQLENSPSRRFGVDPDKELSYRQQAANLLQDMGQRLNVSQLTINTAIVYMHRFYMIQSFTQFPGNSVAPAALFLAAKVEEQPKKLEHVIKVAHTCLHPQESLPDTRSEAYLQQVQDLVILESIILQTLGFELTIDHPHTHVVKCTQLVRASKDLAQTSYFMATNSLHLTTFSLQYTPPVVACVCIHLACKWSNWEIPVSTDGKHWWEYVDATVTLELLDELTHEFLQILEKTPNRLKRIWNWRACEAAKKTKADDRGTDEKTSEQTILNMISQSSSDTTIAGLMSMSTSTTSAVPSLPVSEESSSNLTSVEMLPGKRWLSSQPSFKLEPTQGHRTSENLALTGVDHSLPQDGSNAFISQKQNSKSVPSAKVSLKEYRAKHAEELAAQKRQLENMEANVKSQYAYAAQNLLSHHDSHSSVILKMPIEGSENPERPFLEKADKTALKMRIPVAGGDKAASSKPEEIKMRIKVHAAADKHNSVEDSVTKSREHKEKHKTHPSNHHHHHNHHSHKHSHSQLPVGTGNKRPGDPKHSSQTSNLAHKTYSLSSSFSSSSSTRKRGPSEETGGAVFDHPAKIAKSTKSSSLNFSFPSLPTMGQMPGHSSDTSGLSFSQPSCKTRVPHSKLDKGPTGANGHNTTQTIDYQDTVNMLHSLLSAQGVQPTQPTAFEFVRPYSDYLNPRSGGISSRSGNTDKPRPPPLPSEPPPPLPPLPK
Assay: CDK9/CycT1 high ATP kinase assay (TR-FRET, 2 mM ATP)
Assay type: biochemical
Details: 2 mM ATP (high ATP); median; read-out: CDK9/CyclinT1, 2 mM ATP (high ATP), IC50 (median)
Measured Parameter: IC50

As a guide, the following entries are already answered.
Compound | Measured Value
Fc1cccc(-c2nnc(CNc3nc(N4CCOCC4)nc4c(Br)cnn34)[nH]2)c1 | 0.885 µM
Fc1ccc2[nH]c(CNc3nc(N4CCOCC4)nc4c(C5CCOCC5)cnn34)nc2c1F | > 20 µM
CN1CCN(c2nc(NCc3nc4ccccc4[nH]3)n3ncc(C4CC4)c3n2)CC1 | > 20 µM
N[C@@H]1CN(c2nc(NCc3nc4ccccc4[nH]3)n3ncc(Br)c3n2)CC12CC2 | > 20 µM
Fc1ccc2[nH]c(CNc3nc(N4CCOCC4)nc4c(C(F)(F)F)cnn34)nc2c1 | > 20 µM
C[C@@H]1CN(c2nc(NCc3nnc(-c4ccccc4)[nH]3)n3ncc(Br)c3n2)C[C@H](C)N1 | 6.32 µM

**Q:** Given CN1CCN(c2nc(NCc3nc4ccccc4[nH]3)n3ncc(CC(F)(F)F)c3n2)CC1 , state its recorded IC50.
**A:** > 20 µM

**Q:** Given CN1CC[C@H]2CN(c3nc(NCc4nc5ccccc5[nH]4)n4ncc(Br)c4n3)C[C@H]21 , state its recorded IC50.
**A:** > 20 µM
